Values compiled from patent US9221784B2.

# target_of_assay: LPA receptor LPAR5 (Homo sapiens, UniProt Q9H1C0)
# Sequence (Q9H1C0 whole entry): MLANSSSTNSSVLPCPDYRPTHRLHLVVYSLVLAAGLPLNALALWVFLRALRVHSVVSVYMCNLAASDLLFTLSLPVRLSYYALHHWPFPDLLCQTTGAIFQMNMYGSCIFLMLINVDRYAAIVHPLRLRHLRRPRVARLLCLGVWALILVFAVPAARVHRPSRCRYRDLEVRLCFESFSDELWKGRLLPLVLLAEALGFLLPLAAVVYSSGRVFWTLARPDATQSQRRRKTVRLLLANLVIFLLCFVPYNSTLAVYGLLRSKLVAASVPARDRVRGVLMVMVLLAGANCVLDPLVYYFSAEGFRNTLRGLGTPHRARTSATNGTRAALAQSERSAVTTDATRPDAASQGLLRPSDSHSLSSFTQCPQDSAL
# procedure_text: FLIPR assay, intracellular Ca2+ release in human mast cell line HMC-1
# Type: cell-based
# Design: two cell lines were used with high LPAR5 expression; endogenous in cells; host or cells: HMC-1 human mast cell line
# assay_setup: human mast cell line HMC-1, LPA-stimulated Ca2+ release, test compounds added 10 minutes prior LPA
We label by threshold. Values of IC50 strictly beneath 4 µM are y. Values of 4 µM and up are n.

>>> class_label("O=C(O)C1Oc2ccc(Br)cc2C(C2CCCCC2)(C2CCCCC2)O1 (centres unmarked) [Example 50]")
"y"
>>> class_label("O=C(O)C1Oc2ccc3c(c2C(C2CCCCC2)(C2CCCCC2)O1)CCCC3 (centres unmarked) [Example 45]")
"y"
>>> class_label("Clc1ccc2c(c1)C(C1CCCCC1)(C1CCCCC1)OC(c1nnn[nH]1)O2 (centres unmarked) [Example 60]")
"y"
>>> class_label("Cc1cc2c(cc1Cl)C(C1CCCCC1)(C1CCCCC1)OC(C(=O)O)O2 (centres unmarked) [Example 43]")
"y"
>>> class_label("O=C(O)C1Oc2ccc(OC(F)(F)F)cc2C(C2CCCCC2)(C2CCCCC2)O1 (centres unmarked) [Example 18]")
"y"
>>> class_label("O=c1[nH]c(C2Oc3ccc(Cl)cc3C(C3CCCCC3)(C3CCCCC3)O2)no1 (centres unmarked) [Example 61]")
"y"
>>> class_label("O=C(O)C1Oc2ccc(Cl)cc2C(C2CCCCCC2)(C2CCCCCC2)O1 (centres unmarked) [Example 55]")
"y"
>>> class_label("O=C(O)C1Oc2c(OC(F)(F)F)cccc2C(C2CCCCC2)(C2CCCCC2)O1 (centres unmarked) [Example 46]")
"y"
>>> class_label("O=C(O)C1Oc2cc(OCc3ccccc3)ccc2C(C2CCCCC2)(C2CCCCC2)O1 (centres unmarked) [Example 37]")
"y"
>>> class_label("O=C(O)C1Oc2ccc(Oc3ccc(Cl)cc3)cc2C(C2CCCCC2)(C2CCCCC2)O1 (centres unmarked) [Example 22]")
"y"

Data request: Record O=C(O)C1Oc2ccc(Cl)cc2C(C2CCCCC2)(C2CCCCC2)O1 (centres unmarked) [Example 1] : is its IC50 strictly below 4 µM?
Data returned: y

Data request: Record O=C(O)C1Oc2ccc(-c3ccccc3)cc2C(C2CCCCC2)(C2CCCCC2)O1 (centres unmarked) [Example 35] : is its IC50 strictly below 4 µM?
Data returned: y

Data request: Record COc1cc(OC)c2c(c1)OC(C(=O)O)OC2(C1CCCCC1)C1CCCCC1 (centres unmarked) [Example 7] : is its IC50 strictly below 4 µM?
Data returned: n
